Test summary: Mouse intravenous pharmacokinetics
Format: in vivo
Run conditions: plasma, iv, 2 mg/kg

Molecule	C0 / ng/mL
NC(=O)c1c(F)ccc(OCc2nc3cc(Cl)ccc3s2)c1F	500

----------
Test summary: Mouse intravenous pharmacokinetics
Type: in vivo
Run conditions: plasma, iv, 2 mg/kg

Molecule	half-life, min
NC(=O)c1c(F)ccc(OCc2nc3cc(Cl)ccc3s2)c1F	13

----------
Test summary: Mouse intravenous pharmacokinetics
Format: in vivo
Run conditions: plasma, iv, 2 mg/kg

Molecule	clearance
NC(=O)c1c(F)ccc(OCc2nc3cc(Cl)ccc3s2)c1F	315 mL/min/kg
